Tested on: SF-268
Method: NCI tumour cell line growth inhibition, 48 h
Activity calls are given as the source filed them. Cut-off read from the data, not from the text of the source: active = GI50 up to about 1.1 µM and inactive = higher.
Give one outcome, nothing more. List: TRUE for active, FALSE for inactive

Use these answered entries as a reference point.
CCc1c(-c2ccc(OC)cc2)c(=O)oc2cc(O)ccc12: FALSE
CCOC(=O)C(OCC1CC=CCC1)Sc1ccccc1 (centres undefined): FALSE

Task item: Could you check what this test reported for CCCCCCCCCCCCCCCCCCOP(=O)([O-])OCC[N+](C)(C)C [OCTADECYLPHOSPHONOCHOLINE] ?
Reply: TRUE

Task item: Could you check what this test reported for CC1CCC2(NC1)OC1CC3C4CC=C5CC(OC6OC(CO)C(OC7OC(C)C(O)C(O)C7O)C(O)C6OC6OC(C)C(O)C(O)C6O)CCC5(C)C4CCC3(C)C1C2C (centres undefined) ?
Reply: FALSE

Task item: Could you check what this test reported for CNC1=Nc2ccccc2C(=O)N2CSCC12 (centres undefined) ?
Reply: FALSE

Task item: Could you check what this test reported for CCOC(=O)C(NC(=O)c1ccccc1)(Nc1ccc(S(=O)(=O)Nc2nc(C)cc(C)n2)cc1)C(F)(F)F (centres undefined) ?
Reply: FALSE

Task item: Could you check what this test reported for "O=C(O)CCc1c2ccc(=O)c(O)c-2oc2c(O)c(O)ccc12" ?
Reply: FALSE

Task item: Could you check what this test reported for Cn1c(=O)oc2cc(C(O)CN3CCN(Cc4ccccn4)CC3)c(Cl)cc21 (centres undefined) ?
Reply: FALSE

Task item: Could you check what this test reported for "O=C(NNC(=S)NCc1ccccc1)c1csc(NC(=S)NC2CCCCC2)n1" ?
Reply: FALSE

The measurements presented in this section are drawn from ChEMBL document CHEMBL1201862.
